# assay: Inhibitory concentration against KIAA1363 hydrolase
// classify: if (IC50 < 2 µM) 1 else -1

{"sample-smiles": "CCCCCCCC/C=C\\CCCCCCCC(=O)c1nc2ncccc2o1", "class": -1}
{"sample-smiles": "O=C(c1ccccc1)C(F)(F)F", "class": -1}
{"sample-smiles": "O=C(CCCCCc1ccccc1)C(F)(F)F", "class": 1}
{"sample-smiles": "O=C(CCCCCc1ccccc1)c1nc2ncccc2o1", "class": -1}
{"sample-smiles": "O=C(CCCCCCc1ccccc1)C(F)(F)F", "class": 1}
{"sample-smiles": "CCCCCCCCC#CCCCCCCCC(=O)c1ncc(-c2ccccn2)o1", "class": -1}
{"sample-smiles": "CCCCCCCCCCCC(=O)C(F)(F)F", "class": 1}
{"sample-smiles": "CCCCCCCCC#CCCCCCCCC(=O)c1nc2ncccc2o1", "class": -1}
{"sample-smiles": "O=C(CCCCCCCc1ccccc1)C(F)(F)F", "class": 1}
{"sample-smiles": "CCCCCCCC/C=C\\CCCCCCCC(=O)c1nc2ccccc2o1", "class": -1}
{"sample-smiles": "CCCCCCCCCCCCCCCCCC(=O)C(F)(F)F", "class": -1}
{"sample-smiles": "CCCCCCCC/C=C\\CCCCCCCC(=O)c1ncco1", "class": -1}
{"sample-smiles": "O=C(Cc1ccccc1)C(F)(F)F", "class": -1}
{"sample-smiles": "CCCCCCCC/C=C\\CCCCCCCC(=O)c1ncc(-c2ccccn2)o1", "class": -1}
{"sample-smiles": "O=C(CCCCCCc1ccccc1)c1ncc(-c2ccccn2)o1", "class": -1}
{"sample-smiles": "O=C(CCCCCCc1ccccc1)c1nc2ncccc2o1", "class": -1}
{"sample-smiles": "CCCCCCCC/C=C\\CCCCCCCC(=O)C(F)(F)F", "class": 1}
{"sample-smiles": "CCCCCCCC(=O)C(F)(F)F", "class": 1}
{"sample-smiles": "O=C(CCCCCc1ccccc1)c1nc2ccccc2o1", "class": -1}
{"sample-smiles": "CCCCCCCCCC(=O)C(F)(F)F", "class": 1}

====

# target-entity: Fatty-acid amide hydrolase 1 (Rattus norvegicus, UniProt P97612)
# assay: Inhibitory constant determined against recombinant Fatty-acid amide hydrolase from rat expressed in Escherichia coli
property-name: Ki

{"compound": "CCCCCCCCCC(=O)c1ncc(-c2ccccn2)o1", "property-name": "Ki", "observed": "9 nM"}
{"compound": "O=C(CCCCCc1ccccc1)c1nc2ncccc2o1", "property-name": "Ki", "observed": "0.2 nM"}
{"compound": "CCCCCCCCC#CCCCCCCCC(=O)c1ncc(-c2ccccn2)o1", "property-name": "Ki", "observed": "10 nM"}
{"compound": "CCCCCCCC/C=C\\CCCCCCCC(=O)c1nc(-c2cccnc2)co1", "property-name": "Ki", "observed": "41 nM"}
{"compound": "CCCCCCCC/C=C\\CCCCCCCC(=O)c1ncc(-c2ccoc2)o1", "property-name": "Ki", "observed": "610 nM"}
{"compound": "CCCCCCCC/C=C\\CCCCCCCC(=O)c1nc2ccccc2o1", "property-name": "Ki", "observed": "370 nM"}
{"compound": "CCCCCCCCC(=O)c1ncc(-c2ccccn2)o1", "property-name": "Ki", "observed": "15 nM"}
{"compound": "OC(CCCCCCc1ccccc1)c1ncc(-c2ncccn2)o1 (centres undefined)", "property-name": "Ki", "observed": "5900 nM"}
{"compound": "O=C(CCCCCCc1ccccc1)c1ncc(-c2cnccn2)o1", "property-name": "Ki", "observed": "5.3 nM"}
{"compound": "O=C(CCCCCCc1ccccc1)c1ncc(-c2ncco2)o1", "property-name": "Ki", "observed": "4.6 nM"}
{"compound": "CCCCCCCCCCC(=O)c1ncc(-c2ccccn2)o1", "property-name": "Ki", "observed": "3.3 nM"}
{"compound": "CCCCCCCC/C=C\\CCCCCCCC(=O)c1nc(-c2ncccn2)co1", "property-name": "Ki", "observed": "16 nM"}
{"compound": "CCCCCCCC(=O)c1ncc(-c2ccccn2)o1", "property-name": "Ki", "observed": "49 nM"}
{"compound": "CCCCCCCC/C=C\\CCCCCCCC(=O)c1ncc(-c2ccncc2)o1", "property-name": "Ki", "observed": "56 nM"}
{"compound": "CCCCCCCCCCCCCC(=O)c1ncc(-c2ccccn2)o1", "property-name": "Ki", "observed": "13 nM"}
{"compound": "O=C(CCCCCCCCc1ccccc1)c1ncc(-c2ccccn2)o1", "property-name": "Ki", "observed": "7.8 nM"}
{"compound": "O=C(CCCCCCc1ccccc1)c1ncc(-c2ccncn2)o1", "property-name": "Ki", "observed": "2.3 nM"}
{"compound": "CCCCCCCC/C=C\\CCCCCCCC(=O)c1nc(-c2ccncn2)co1", "property-name": "Ki", "observed": "16 nM"}
{"compound": "CCCCCCCC/C=C\\CCCCCCCC(=O)c1nc(-c2ccccc2)c(-c2ccccc2)o1", "property-name": "Ki", "observed": "> 100000 nM"}
{"compound": "CCCCCCCC/C=C\\CCCCCCCC(=O)c1nc(-c2ccncc2)co1", "property-name": "Ki", "observed": "78 nM"}
{"compound": "O=C(CCCCC#Cc1ccccc1)c1ncc(-c2ccccn2)o1", "property-name": "Ki", "observed": "20 nM"}
{"compound": "CCCCCCCC/C=C\\CCCCCCCC(O)c1ncc(-c2ccccn2)o1 (centres undefined)", "property-name": "Ki", "observed": "10600 nM"}
{"compound": "O=C(CCCCCCc1ccccc1)c1ncc(-c2cccnn2)o1", "property-name": "Ki", "observed": "5.6 nM"}
{"compound": "OC(CCCCCCc1ccccc1)c1ncc(-c2cccnn2)o1 (centres undefined)", "property-name": "Ki", "observed": "4300 nM"}

====

Let's go through some recorded pIC50 values for Liver carboxylesterase 1 (Homo sapiens) together.
pIC50: −log10 of the molar value.
property-name: pIC50

{"sample-smiles": "O=C(Cc1ccccc1)C(F)(F)F", "value-operator": "=", "observed": 8.00}
{"sample-smiles": "CCCCCCCCC#CCCCCCCCC(=O)c1nc2ncccc2o1", "value-operator": "=", "observed": 6.30}
{"sample-smiles": "CCCCCCCC/C=C\\CCCCCCCC(=O)C(F)(F)F", "value-operator": "=", "observed": 5.32}
{"sample-smiles": "CCCCCCCC/C=C\\CCCCCCCC(=O)c1ncc(-c2ccccn2)o1", "value-operator": "<", "observed": 4.00}
{"sample-smiles": "O=C(c1ccccc1)C(F)(F)F", "value-operator": "=", "observed": 8.40}

====

# target-entity: Fatty-acid amide hydrolase 1 (Rattus norvegicus, UniProt P97612)
# Sequence (P97612 whole entry): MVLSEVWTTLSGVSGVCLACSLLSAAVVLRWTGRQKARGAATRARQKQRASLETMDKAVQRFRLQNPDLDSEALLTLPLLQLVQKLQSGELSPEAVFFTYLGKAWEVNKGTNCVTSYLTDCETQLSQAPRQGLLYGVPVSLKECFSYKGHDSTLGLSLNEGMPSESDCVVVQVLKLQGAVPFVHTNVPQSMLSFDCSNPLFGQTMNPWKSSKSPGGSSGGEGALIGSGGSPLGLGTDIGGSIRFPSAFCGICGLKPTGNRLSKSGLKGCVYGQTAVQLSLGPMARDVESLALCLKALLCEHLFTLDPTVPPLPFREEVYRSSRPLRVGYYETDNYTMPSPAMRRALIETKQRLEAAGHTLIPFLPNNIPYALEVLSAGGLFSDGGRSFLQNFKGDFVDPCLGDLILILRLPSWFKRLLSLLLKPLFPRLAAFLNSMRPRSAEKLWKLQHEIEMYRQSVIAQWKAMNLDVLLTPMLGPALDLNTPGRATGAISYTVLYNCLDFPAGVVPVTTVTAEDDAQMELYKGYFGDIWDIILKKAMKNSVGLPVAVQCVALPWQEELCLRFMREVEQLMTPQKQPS
# assay: Inhibitory constant determined against recombinant Fatty-acid amide hydrolase from rat expressed in Escherichia coli
property-name: Ki (nM)

{"sample-smiles": "CCCCCCCC/C=C\\CCCCCCCC(=O)c1nc(-c2ccccc2)co1", "property-name": "Ki", "value-operator": "=", "observed": 490}
{"sample-smiles": "C#CCCCCC(=O)c1ncc(-c2ccccn2)o1", "property-name": "Ki", "value-operator": "=", "observed": 1300}
{"sample-smiles": "O=C(CCCCCCc1ccccc1)c1ncc(-c2cncnc2)o1", "property-name": "Ki", "value-operator": "=", "observed": 22}
{"sample-smiles": "CCCCCCCC/C=C\\CCCCCCCC(=O)c1ncc(-c2ccccc2)o1", "property-name": "Ki", "value-operator": "=", "observed": 320}
{"sample-smiles": "CCC(=O)c1ncc(-c2ccccn2)o1", "property-name": "Ki", "value-operator": "=", "observed": 48000}
{"sample-smiles": "O=C(CCCCCCc1ccccc1)c1ncc(-c2nccs2)o1", "property-name": "Ki", "value-operator": "=", "observed": 5.8}
{"sample-smiles": "C[Si](C)(C)C#CCCCCC(=O)c1ncc(-c2ccccn2)o1", "property-name": "Ki", "value-operator": "=", "observed": 200}
{"sample-smiles": "CC(=O)c1ncc(-c2ccccn2)o1", "property-name": "Ki", "value-operator": ">", "observed": 100000}
{"sample-smiles": "CCCCCCCC/C=C\\CCCCCCCC(=O)c1ncc(-c2cccs2)o1", "property-name": "Ki", "value-operator": "=", "observed": 890}
{"sample-smiles": "C#CCCCCCCCC(=O)c1ncc(-c2ccccn2)o1", "property-name": "Ki", "value-operator": "=", "observed": 23}
{"sample-smiles": "CCCCCCCC/C=C\\CCCCCCCC(=O)c1nc(C)c(C)o1", "property-name": "Ki", "value-operator": "=", "observed": 3800}
{"sample-smiles": "c1ccc(CCCCCCCc2ncc(-c3ccccn3)o2)cc1", "property-name": "Ki", "value-operator": "=", "observed": 20000}
